Data provenance is ChEMBL document CHEMBL3885861.

- Species: Rattus norvegicus
- TEST_DETAILS: Open TG-GATES - Regimen: Daily Repeat
- Format: toxicity, organism-based, Sprague-Dawley
- Set-up: regimen Daily Repeat, gender Male, age 6 weeks
- STATED_CONDITIONS: in vivo, po, 1000 mg/kg, […], tissue Kidney, route gavage, dose level High, time 28 day
REPORTED_ENDPOINT: KIDNEY_L (g)
Value expressed in g; do not type the unit.

Reference set (4 entries):
>>> observed_result("Cc1nnc2n1-c1ccc(Cl)cc1C(c1ccccc1Cl)=NC2")
1.4
>>> observed_result("CN/C(=N/CCSCc1nc[nH]c1C)NC#N")
1.4
>>> observed_result("CNC(=C[N+](=O)[O-])NCCSCc1ccc(CN(C)C)o1")
1.4
>>> observed_result("CCOc1ccc(NC(C)=O)cc1")
1.5

### Prompt Entry COC(=O)C1=C(C)NC(C)=C(C(=O)OC)C1c1ccccc1[N+](=O)[O-] : reported KIDNEY_L = ?
### Response 1.4

### Prompt Entry O=C(OC[C@H]1O[C@@H](OC(=O)c2cc(O)c(O)c(OC(=O)c3cc(O)c(O)c(O)c3)c2)[C@H](OC(=O)c2cc(O)c(O)c(OC(=O)c3cc(O)c(O)c(O)c3)c2)[C@@H](OC(=O)c2cc(O)c(O)c(OC(=O)c3cc(O)c(O)c(O)c3)c2)[C@@H]1OC(=O)c1cc(O)c(O)c(OC(=O)c2cc(O)c(O)c(O)c2)c1)c1cc(O)c(O)c(OC(=O)c2cc(O)c(O)c(O)c2)c1 : reported KIDNEY_L = ?
### Response 1.4
